Hi there, I'd appreciate the recorded inhibition rate (%), 10^-7 M for every entry that follows.
System: steroid 5α-reductase
Experiment: Inhibition effects on steroid 5α-reductase activity (rat prostate enzyme, [4-14C]-testosterone)
Assay type: biochemical, male rats
Settings: pH 6.5, 37° C., 20 minutes
Answer format: numeric, % implied, no suffix.

Look up inhibition rate (%), 10^-7 M of CCCC(c1ccccc1C)n1ccc2cc(/C(C)=C/C(=O)Nc3ccccc3OCCCC(=O)O)ccc21 (stereo not shown) and report it.
94

Look up inhibition rate (%), 10^-7 M of CCCCCC(c1ccccc1)n1ccc2cc(/C(C)=C/C(=O)Nc3ccccc3OCCCC(=O)O)ccc21 (stereo not shown) and report it.
74

Look up inhibition rate (%), 10^-7 M of CCCC(c1ccccc1)n1ccc2cc(/C(C)=C/C(=O)Nc3ccccc3OCCCC(=O)O)ccc21 (stereo not shown) and report it.
90

Look up inhibition rate (%), 10^-7 M of C/C(=C\C(=O)Nc1ccccc1OCCCC(=O)O)c1ccc2c(ccn2C(c2ccccc2)C(C)C)c1 (stereo not shown) and report it.
78

Look up inhibition rate (%), 10^-7 M of C/C(=C\C(=O)Nc1ccccc1OCCCC(=O)O)c1ccc2c(ccn2C(c2ccccc2)c2cccnc2)c1 (stereo not shown) and report it.
66

Look up inhibition rate (%), 10^-7 M of C/C(=C\C(=O)Nc1ccccc1OCCCC(=O)O)c1ccc2c(ccn2C2CCCc3ccccc32)c1 (stereo not shown) and report it.
77

Look up inhibition rate (%), 10^-7 M of C/C(=C\C(=O)Nc1ccccc1OCCCC(=O)O)c1ccc2c(ccn2C(c2ccccc2)c2ccccn2)c1 (stereo not shown) and report it.
72
